target: UniProt O97282; test: IC50 for competition of protein binding to Kinobeads; details: assay detail: Kinobeads competition in P. falciparum blood-stage lysate;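 also: native unpurified kinases from lysate captured on beads bearing immobilized kinase inhibitors, with bead-bound kinases quantified by mass spectrometry across compound doses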
metric.name: IC50

Suppose we examine the compound O=c1[nH]c2ccc(Cl)cc2c(NC2CN3CCC2CC3)c1-c1nc2ccccc2[nH]1 (stereo unspecified) [CHIR-124] ; what IC50 value has been reported? > 20 µM

---

target: UniProt Q8I488; test: IC50 for competition of protein binding to Kinobeads; details: assay detail: Kinobeads competition in P. falciparum blood-stage lysate
metric.name: IC50

Suppose we examine the molecule O=c1[nH]c2ccc(Cl)cc2c(NC2CN3CCC2CC3)c1-c1nc2ccccc2[nH]1 (stereo unspecified) ; what IC50 value has been reported? > 20 µM
